The entries below pair molecules with IC50 values for BRD2 (Homo sapiens (Human), UniProt P25440), as found in several publications.

{"MOLECULE": "COc1ncc(-c2cc3c(n2C)C(c2ccc(Cl)cc2)N(c2cc(C)c(=O)n(C)c2)C3=O)cn1 (stereo not shown)", "ASSAYED_TARGET": "BRD2 (Homo sapiens (Human), UniProt P25440)", "IC50": "53 nM"}
{"MOLECULE": "COc1ncc(-c2nc3c(n2C(C)C)C(c2ccc(Cl)cc2)N(c2cc(C)c4nnc(C)n4c2)C3=O)c(OC)n1 (stereo not shown)", "ASSAYED_TARGET": "BRD2 (Homo sapiens (Human), UniProt P25440)", "IC50": "60 nM"}
{"MOLECULE": "Cc1nn(C2CC2)c2c1[C@H](c1ccc(Cl)cc1)N(c1cc(Cl)c(=O)n(C)c1)C2=O", "ASSAYED_TARGET": "BRD2 (Homo sapiens (Human), UniProt P25440)", "IC50": "> 6700 nM"}
{"MOLECULE": "Cc1cn(CCO)c2c1C(=O)N(c1cc(C)c3nnc(C)n3c1)C2c1ccc(Cl)cc1 (stereo not shown)", "ASSAYED_TARGET": "BRD2 (Homo sapiens (Human), UniProt P25440)", "IC50": "23 nM"}

###

The entries below pair molecules with IC50 values for BRD2 (Homo sapiens (Human), UniProt P25440), as found in several publications.
Field: label. Allowed values: 1 (yes) (IC50 < 40 nM) or 0 (no) (IC50 >= 40 nM).

{"MOLECULE": "CCn1nc2c(c1C)C(c1ccc(Cl)cc1)N(c1cc(C)c3nnc(C)n3c1)C2=O (stereo not drawn)", "CLASS": "0 (no)"}
{"MOLECULE": "Cc1cc(N2C(=O)c3c(C4CC4)nn(C)c3C2c2ccc(Cl)cc2)cn2c(C)nnc12 (stereo not drawn)", "CLASS": "1 (yes)"}
{"MOLECULE": "Cc1nn(C(C)C)c2c1C(c1ccc(Cl)cc1)N(c1cc(C)c(=O)n(C)c1)C2=O (stereo not drawn)", "CLASS": "0 (no)"}
{"MOLECULE": "COc1ncccc1-c1nn(C)c2c1C(=O)N(c1cc(C)c(=O)n(C)c1)C2c1ccc(Cl)cc1 (stereo not drawn)", "CLASS": "0 (no)"}
{"MOLECULE": "CC(=O)N1CC(n2cc(C3CC3)c3c2C(c2ccc(Cl)cc2)N(c2cc(C)c4nnc(C)n4c2)C3=O)C1 (stereo not drawn)", "CLASS": "1 (yes)"}
{"MOLECULE": "COc1ncccc1-n1nc(C)c2c1C(=O)N(c1cc(C)c(=O)n(C)c1)[C@H]2c1ccc(Cl)cc1", "CLASS": "0 (no)"}
{"MOLECULE": "Cc1cc(N2C(=O)c3cc(-c4cnc(N(C)C)nc4)n(C)c3C2c2ccc(Cl)cc2)cn(C)c1=O (stereo not drawn)", "CLASS": "0 (no)"}
{"MOLECULE": "COc1ncccc1-c1nc2c(n1C(C)C)C(=O)N(c1cc(C)c(=O)n(C)c1)C2c1ccc(Cl)cc1 (stereo not drawn)", "CLASS": "1 (yes)"}
{"MOLECULE": "COc1cc(N2C(=O)c3nc(C4=CCOCC4)n(C(C)C)c3[C@H]2c2ccc(Cl)cc2)cc2c1nnn2C", "CLASS": "0 (no)"}
{"MOLECULE": "Cc1nn(C2CC2)c2c1C(c1ccc(Cl)cc1)N(c1cc(C)c3nnc(C(F)F)n3n1)C2=O (stereo not drawn)", "CLASS": "1 (yes)"}
{"MOLECULE": "CCOC(=O)N1CC=C(c2nc3c(n2C(C)C)C(c2ccc(Cl)cc2)N(c2cc(C)c4nnc(C)n4c2)C3=O)CC1 (stereo not drawn)", "CLASS": "1 (yes)"}
{"MOLECULE": "Cc1cc(N2C(=O)c3cc(-c4ccc(N(C)C)nc4)n(C)c3C2c2ccc(Cl)cc2)cn(C)c1=O (stereo not drawn)", "CLASS": "1 (yes)"}
{"MOLECULE": "Cc1cc(N2C(=O)c3nc(C4CC4)n(C(C)C)c3C2c2ccc(Cl)cc2)cn2c(C(F)F)nnc12 (stereo not drawn)", "CLASS": "0 (no)"}
{"MOLECULE": "Cc1cc(N2C(=O)c3nc(C4=CCOCC4)n(C(C)C)c3C2c2ccc(Cl)cc2)cn2c(C)nnc12 (stereo not drawn)", "CLASS": "1 (yes)"}

###

The entries below pair compounds with IC50 values for UniProtKB P25440, as found in several publications.
READOUT_KIND: IC50 (nM)

{"COMPOUND": "Cc1nnn2c1-c1ccccc1N(c1cccc(C(O)CO)c1)CC2 (centres unmarked)", "ASSAYED_TARGET": "UniProtKB P25440", "RELATION_OPERATOR": "<", "READING": 100}
{"COMPOUND": "Cc1nn(C)c2c1C(=O)N(c1cc(C)c(=O)n(C)c1)C2c1ccc(Cl)cc1 (centres unmarked)", "ASSAYED_TARGET": "UniProtKB P25440", "RELATION_OPERATOR": "=", "READING": 84}
{"COMPOUND": "Cc1cc(N2C(=O)c3nc(C4CCCC4)n(C(C)C)c3C2c2ccc(Cl)cc2)cn(C)c1=O (centres unmarked)", "ASSAYED_TARGET": "UniProtKB P25440", "RELATION_OPERATOR": "=", "READING": 45}
{"COMPOUND": "Cc1cnc(Nc2ccc(N3CCN(C)CC3)cc2)nc1Nc1cccc(NS(=O)(=O)C(C)(C)C)c1", "ASSAYED_TARGET": "UniProtKB P25440", "RELATION_OPERATOR": "=", "READING": 625}
{"COMPOUND": "Cc1nn(C(C)C)c2c1[C@H](c1ccc(Cl)cc1)N(c1cc(C)c(=O)n(C)c1)C2=O", "ASSAYED_TARGET": "UniProtKB P25440", "RELATION_OPERATOR": "=", "READING": 5300}
{"COMPOUND": "COc1ncc(-c2nc3c([nH]2)[C@@H](c2ccc(Cl)cc2)N(c2cc(OC)c4nnc(C)n4c2)C3=O)c(OC)n1", "ASSAYED_TARGET": "UniProtKB P25440", "RELATION_OPERATOR": "=", "READING": 220}
{"COMPOUND": "COc1ncc(-n2nc3c(c2C(C)C)[C@@H](c2ccc(Cl)cc2)N(c2cc(C)c4onc(C)c4c2)C3=O)c(OC)n1", "ASSAYED_TARGET": "UniProtKB P25440", "RELATION_OPERATOR": "=", "READING": 60}
{"COMPOUND": "COc1cc(C(F)(F)F)ccc1-c1nc2c(n1C(C)C)C(c1ccc(Cl)cc1)N(c1cc(C)c3nnc(C(F)F)n3c1)C2=O (centres unmarked)", "ASSAYED_TARGET": "UniProtKB P25440", "RELATION_OPERATOR": "=", "READING": 26}

###

pIC50: −log10 of the molar value.
The entries below pair compounds with pIC50 values for BRD2 (Homo sapiens (Human)), as found in several publications.

{"COMPOUND": "Cc1cc(N2C(=O)c3nn(C4CC4)c(C)c3[C@H]2c2ccc(Cl)cc2)cn(C)c1=O", "pIC50": 7.32}
{"COMPOUND": "Cc1nn(C(=O)N(C)C)c2c1[C@@H](c1ccc(Cl)cc1)N(c1cc(C)c3nnc(C)n3c1)C2=O", "pIC50": 7.44}
{"COMPOUND": "CC(C)n1c(-c2ccnn2C)nc2c1C(c1ccc(Cl)cc1)N(c1ccc(=O)n(C)c1)C2=O (centres unmarked)", "pIC50": 5.96}
{"COMPOUND": "Cc1nn(C2CC2)c2c1C(c1ccc(Cl)cc1)N(c1cc(Cl)c(=O)n(C)c1)C2=O (racemic)", "pIC50": 6.64}
{"COMPOUND": "Cc1nn(C2CCC2)c2c1C(c1ccc(Cl)cc1)N(c1cc(C)c(=O)n(C)c1)C2=O (centres unmarked)", "pIC50": 7.60}
{"COMPOUND": "Cc1nn(C(C)C)c2c1C(c1ccc(F)cc1F)N(c1cc(C)c3nnc(C)n3c1)C2=O (centres unmarked)", "pIC50": 6.96}
{"COMPOUND": "Cc1nn(C2CC2)c2c1[C@@H](c1ccc(Cl)cc1)N(c1cc(C)c(=O)n(C)c1)C2=O", "pIC50": 7.82}
{"COMPOUND": "Cc1cc(N2C(=O)c3c(C(=O)N(C)C)cn(C)c3C2c2ccc(Cl)cc2)nc2c1nnn2C (centres unmarked)", "pIC50": 7.77}

###

pIC50: −log10 of the molar value.
The entries below pair compounds with pIC50 values for UniProtKB P25440, as found in several publications.
READOUT_KIND: pIC50

{"COMPOUND": "Cc1nn(-c2ccnn2C)c2c1[C@H](c1ccc(Cl)cc1)N(c1cc(C)c(=O)n(C)c1)C2=O", "READOUT_KIND": "pIC50", "RELATION_OPERATOR": "=", "READING": 5.28}
{"COMPOUND": "Cc1ncccc1-n1nc(C)c2c1C(=O)N(c1cc(C)c(=O)n(C)c1)C2c1ccc(Cl)cc1 (stereo not shown)", "READOUT_KIND": "pIC50", "RELATION_OPERATOR": "=", "READING": 7.01}
{"COMPOUND": "COc1ncccc1-n1nc(C)c2c1C(=O)N(c1cc(C)c3nnc(C)n3c1)C2c1ccc(F)cc1F (stereo not shown)", "READOUT_KIND": "pIC50", "RELATION_OPERATOR": "=", "READING": 7.10}
{"COMPOUND": "COc1cc(N2C(=O)c3nc(C4=CCCN(C)C4)n(C(C)C)c3C2c2ccc(Cl)cc2)cc2c1nnn2C (stereo not shown)", "READOUT_KIND": "pIC50", "RELATION_OPERATOR": "=", "READING": 6.82}
{"COMPOUND": "Cc1cc(N2C(=O)c3c(NC(=O)OC(C)(C)C)cn(C)c3C2c2ccc(Cl)cc2)cn2c(C)nnc12 (stereo not shown)", "READOUT_KIND": "pIC50", "RELATION_OPERATOR": "=", "READING": 7.36}
{"COMPOUND": "Cc1nnn2c1-c1ccc(C(=O)NS(=O)(=O)c3ccccc3)cc1N(c1ccc(Cl)cc1)CC2", "READOUT_KIND": "pIC50", "RELATION_OPERATOR": ">", "READING": 7.00}
{"COMPOUND": "Cc1nnn2c1-c1ccc(C(=O)NOCCO)cc1N(c1ccc(Cl)cc1)CC2", "READOUT_KIND": "pIC50", "RELATION_OPERATOR": ">", "READING": 7.00}
